test: chemical genetic growth profiling, strain panel (AID 1159580);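 further: tested at 20 µM; growth read once vehicle control cultures reached saturation at 30 °C; 1 = growth at the plate median or of vehicle wells; lower values mean less growth of the strain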; settings: S. cerevisiae deletion strains, growth OD, locus YLR133W, strain CKI1, hits give low values
Out of some 5,500 compounds screened, about 2,000 (36%) were called active. Roughly 18% stayed inconclusive and do not appear here. The list shows a part of the results.
Parameter: normalized growth
API note: the answer field is a bare number with no unit suffix.

// known answers, use as guide
[[record]]
molecule = "Cc1csc(NC(=O)Nc2ccc(C(F)(F)F)cc2)c1Cl"
parameter = "normalized growth"
observed_value = 0.823

[[record]]
molecule = "O=C(NCCNc1ncc(Cl)cc1C(F)(F)F)C(F)(F)Sc1ccccc1"
parameter = "normalized growth"
observed_value = 0.979

[[record]]
molecule = "Fc1cccc(Cl)c1CSc1n[nH]c(-c2cc(C(F)(F)F)cc(C(F)(F)F)c2)n1"
parameter = "normalized growth"
observed_value = 0.902


Query block: Would you kindly share the measured normalized growth for "Cc1csc(NC(=O)Nc2ccc(C(F)(F)F)cc2)c1" ?
Result block: 0.675

Query block: Please give the result for "Clc1cc(Cl)cc(-c2nc(SCc3ccc(Cl)cc3Cl)n[nH]2)c1" too.
Result block: 0.924

Query block: Please give the result for "O=C(N/N=C\c1cc(Br)ccc1O)c1ccccc1Oc1ccccc1" too.
Result block: 0.916

Query block: Please give the result for "O=C(Nc1ccccc1Sc1ccc([N+](=O)[O-])cc1[N+](=O)[O-])C(Cl)(Cl)Cl" too.
Result block: 0.977

Query block: Please give the result for S=C(NNC(=S)NC1CC2C=CC1C2)Nc1ccc(Br)c(Cl)c1 (centres undefined) too.
Result block: 0.959

----------
test: chemical genetic growth profiling, strain panel (AID 1159580);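 further: tested at 20 µM; growth read once vehicle control cultures reached saturation at 30 °C; 1 = growth at the plate median or of vehicle wells; lower values mean less growth of the strain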; settings: S. cerevisiae deletion strains, growth OD, locus YHR079C, strain IRE1, hits give low values
Screen size: about 5,500 compounds; about 2,000 (36%) were called active. Roughly 18% stayed inconclusive and do not appear here. The list shows a part of the results.
Parameter: normalized growth
API note: the answer field is a bare number with no unit suffix.

// known answers, use as guide
[[record]]
molecule = "Nc1c2ccccc2nc2ccccc12"
parameter = "normalized growth"
observed_value = 0.763

[[record]]
molecule = "CCCCCCCCCCCC[C@H](C(=O)O)[C@@H](C)C(=O)O"
parameter = "normalized growth"
observed_value = 0.953

[[record]]
molecule = "Fc1ccc(NC(=S)N2CCCN(Cc3ccc(Cl)cc3Cl)CC2)cc1"
parameter = "normalized growth"
observed_value = 0.964


Query block: Would you kindly share the measured normalized growth for CC(C)CC(N(C)C)C1(c2ccc(Cl)cc2)CCC1 (stereo unspecified) ?
Result block: 1.01

Query block: Please give the result for "O=C(O)CC(O)(CC(=O)O)C(=O)O" too.
Result block: 0.995

Query block: Please give the result for CN1[C@@H]2CC[C@@H]1CC(O)C2 (stereo partly specified) too.
Result block: 1.04

Query block: Please give the result for "COc1cccc2c1C(=O)c1c(O)c3c(c(O)c1C2=O)C[C@@](O)(C(=O)CO)C[C@@H]3O[C@H]1C[C@H](N)[C@@H](O)[C@H](C)O1" too.
Result block: 0.994

Query block: Please give the result for CC(=O)O[C@H]1CC[C@@]2(C)C(CC[C@]3(C)C2CC=C2C4CC(C)(C)CC[C@]4(C)CC[C@]23C)C1(C)C (stereo partly specified) too.
Result block: 1.03
